Molecular target: Cytochrome P450 3A4 (Homo sapiens) (UniProt P08684)
Sequence (P08684 whole entry, looked up): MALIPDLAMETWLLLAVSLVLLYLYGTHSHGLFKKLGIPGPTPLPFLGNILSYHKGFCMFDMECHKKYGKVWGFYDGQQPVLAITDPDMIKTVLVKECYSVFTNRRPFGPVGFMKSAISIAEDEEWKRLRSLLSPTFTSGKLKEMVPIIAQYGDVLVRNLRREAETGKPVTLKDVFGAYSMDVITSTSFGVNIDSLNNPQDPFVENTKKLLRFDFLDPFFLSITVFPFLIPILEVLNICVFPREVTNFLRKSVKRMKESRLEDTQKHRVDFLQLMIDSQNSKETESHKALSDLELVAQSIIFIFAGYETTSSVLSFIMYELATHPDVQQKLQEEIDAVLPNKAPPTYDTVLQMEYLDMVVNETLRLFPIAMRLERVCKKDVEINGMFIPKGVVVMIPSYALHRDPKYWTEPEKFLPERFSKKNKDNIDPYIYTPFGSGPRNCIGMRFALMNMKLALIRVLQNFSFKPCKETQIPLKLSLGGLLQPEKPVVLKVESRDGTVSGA
Assay: qHTS Assay for Inhibitors and Substrates of Cytochrome P450 3A4 (AID 884); further: nearly all actives have a fitted effect of over 50% in size
Conditions: recombinant CYP3A4, Luciferin-PPXE luminescence; series mostly up to 57.1 µM
Results filed as inconclusive are left out. Active and inactive are the calls of the source. The call rests on the fitted dose curve; in most records, active means well fitted inhibition curve with a large enough effect; inconclusive means small, poorly fitted or top-dose-only effect; inactive means no such curve, though single readings can be large or run the other way.
Answer with one of the outcomes active, inactive

Exercise: Answer briefly: the call reported for `Cc1ccc(C(=O)Cn2c3c(sc2=N)CCCC3)cc1` in this assay.
Solution: active

Exercise: Please indicate how the test categorized `CCCn1c(=O)[nH]c2nc(-c3ccc(S(=O)(=O)O)cc3)[nH]c2c1=O` .
Solution: inactive

Exercise: Name the outcome recorded for `COc1cc(/C=C/C(=O)O)ccc1O` in the assay.
Solution: inactive

Exercise: Hi team, can someone confirm the assay call for `O=C(O)[C@H]1CN(CCCP(=O)(O)O)CCN1` ?
Solution: inactive

Exercise: Any idea what this test logged for `CC(C)Oc1cccc(-n2c(CCc3c[nH]c4ccc(Br)cc34)nc3ccccc3c2=O)c1` ?
Solution: active

Exercise: State the result this test recorded for O=C(OC1Cc2c(O)cc(O)cc2OC1c1cc(O)c(O)c(O)c1-c1c(C2Oc3cc(O)cc(O)c3CC2O)cc(O)c(O)c1O)c1cc(O)c(O)c(O)c1 (stereo not drawn) .
Solution: inactive

Exercise: Identify the outcome logged in this assay for the compound shown: `CCCN(C/C=C\I)[C@@H]1CCc2cccc(O)c2C1`
Solution: inactive

Exercise: Outcome? `O=C(NC1CCN(Cc2ccccc2)CC1)c1ccc(I)cc1`
Solution: inactive

Exercise: Outcome logged for Nc1ncnc2c1c(I)cn2C1OC(CO)C(O)C1O (stereo not drawn) in this assay:
Solution: inactive

Exercise: Assay result, entry `O=C1CC[C@H](N2C(=O)c3ccccc3C2=O)C(=O)N1` — outcome?
Solution: inactive

Exercise: # fetch the recorded call for `O=C(O)c1nc2cc(Cl)c(Cl)cc2[nH]c1=O` here
Solution: inactive

Exercise: Hey, what did the test say about CC1OC(OC2C(CO)OC(OC3C(CO)OC(O)C(O)C3O)C(O)C2O)C(O)C(O)C1NC1C=C(CO)C(O)C(O)C1O (stereo not drawn) ?
Solution: inactive

Exercise: GET /call?item= `CC(=O)NCCc1c(Cc2ccccc2)[nH]c2ccccc12` returns the recorded outcome of this test.
Solution: active
